Source: patent US10227373B2

System: Marburg
QUANTITY_KIND: EC50 (nM)
Quick note: give the figure in nM, leave out the unit.

Query string: For Marburg, give the measured EC50 of the entry `Nc1ncc(Br)c2c1ncn2[C@@H]1C=C(CO)[C@@H](O)[C@H]1O`
Result string: 9

---

Collected CC50 values appear next to each entry.
EXPERIMENTAL_DETAILS: in vitro
STUDY_CONDITIONS: human

[[record]]
molecule = "Nc1ncnc2c1ncn2C1=C[C@@H](CO)[C@H](O)[C@@H]1O [“L”-Isoneplanocin]"
quantity_kind = "CC50"
measurement = "> 300 µM"


Please examine the following record next.
Query string: Supply reported CC50 belonging to this molecule: Nc1ncnc2c1ncn2C1=C[C@H](CO)[C@@H](O)[C@H]1O [“D”-Isoneplanocin]
Result string: > 100 µM

---

System: Flu A (H3N2)
QUANTITY_KIND: pEC50
# log scale: pEC50 equals minus log10 of the concentration in mol/L

Query string: Supply reported pEC50 belonging to this compound: `Nc1ncc(Br)c2c1ncn2[C@@H]1C=C(CO)[C@@H](O)[C@H]1O`
Result string: 5.81

---

System: NOV
EXPERIMENTAL_DETAILS: microbe, parasite or virus in culture
Format: cell-based
STUDY_CONDITIONS: Norovirus, HG23
QUANTITY_KIND: EC50
Express the reported value numerically, then name its unit.

[[record]]
compound = "Nc1ncnc2c1ncn2C1=C[C@@H](CO)[C@H](O)[C@@H]1O [“L”-Isoneplanocin]"
quantity_kind = "EC50"
measurement = "11 µM"


Query string: Supply reported EC50 belonging to this compound: Nc1ncnc2c1ncn2C1=C[C@H](CO)[C@@H](O)[C@H]1O [“D”-Isoneplanocin]
Result string: 0.784 µM

---

Tested on: MDCK cells
QUANTITY_KIND: CC50

Query string: For MDCK cells, give the measured CC50 of the entry `Nc1ncc(Br)c2c1ncn2[C@@H]1C[C@H](CO)[C@@H](O)[C@H]1O`
Result string: > 290 µM

---

Collected CC50 values appear next to each entry.
EXPERIMENTAL_DETAILS: in vitro
STUDY_CONDITIONS: African green monkey
Quick note: give the figure in µM, leave out the unit.

[[record]]
structure_smiles_string = "Nc1ncnc2c1ncn2C1=C[C@H](CO)[C@@H](O)[C@H]1O"
quantity_kind = "CC50"
measurement = 1.3


Please examine the following record next.
Query string: Supply reported CC50 belonging to this compound: `Nc1ncnc2c1ncn2C1=C[C@@H](CO)[C@H](O)[C@@H]1O`
Result string: 11.4
